src = ChEMBL document CHEMBL5030567

Listed next: entries and their corresponding IC50.
# target: Hepatocyte growth factor activator serine protease (Homo sapiens, UniProt Q04756)
# Sequence (Q04756 373-407 limits assumed): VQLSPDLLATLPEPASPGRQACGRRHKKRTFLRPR
# Sequence (Q04756 408-655 limits assumed): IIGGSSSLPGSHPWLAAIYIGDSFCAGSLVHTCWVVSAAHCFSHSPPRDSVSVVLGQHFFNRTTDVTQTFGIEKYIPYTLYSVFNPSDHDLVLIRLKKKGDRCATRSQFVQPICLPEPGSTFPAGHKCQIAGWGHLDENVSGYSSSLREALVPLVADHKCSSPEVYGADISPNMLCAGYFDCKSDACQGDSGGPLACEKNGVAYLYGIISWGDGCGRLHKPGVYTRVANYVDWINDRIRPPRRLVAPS
# method_summary: Inhibition of recombinant human HGFA serine protease domain using Boc-QLR-AMC as substrate preincubated for 30 mins followed by substrate addition by fluorescence based assay

{"columns": ["compound_smiles", "target", "censoring_operator", "IC50 [µM]"],
 "data": [
  ["CC(=O)N[C@H]1CC(=O)NCCCC[C@@H](C(=O)N[C@@H](CCCNC(=N)N)C(=O)c2nc3ccccc3s2)NC(=O)[C@H]([C@@H](C)O)NC1=O", "Hepatocyte growth factor activator serine protease (Homo sapiens, UniProt Q04756)", "=", 11.8],
  ["CC(=O)N[C@H]1CC(=O)NCCCC[C@@H](C(=O)N[C@@H](CCCNC(=N)N)C(=O)c2nccs2)NC(=O)[C@H](CC(C)C)NC1=O", "Hepatocyte growth factor activator serine protease (Homo sapiens, UniProt Q04756)", ">", 20],
  ["CC(=O)N[C@H]1CC(=O)NCCCC[C@@H](C(=O)N[C@@H](CCCNC(=N)N)C(=O)c2nc3ccccc3s2)NC(=O)[C@H](Cc2ccc(O)cc2)NC1=O", "Hepatocyte growth factor activator serine protease (Homo sapiens, UniProt Q04756)", ">", 20],
  ["CC(=O)N[C@H]1CCCCNC(=O)C[C@@H](C(=O)N[C@@H](CCCNC(=N)N)C(=O)c2nc3ccccc3s2)NC(=O)[C@H](CC(C)C)NC1=O", "Hepatocyte growth factor activator serine protease (Homo sapiens, UniProt Q04756)", ">", 20],
  ["CC(=O)N[C@H]1CC(=O)N(C)CCCC[C@@H](C(=O)N[C@@H](CCCNC(=N)N)C(=O)c2nc3ccccc3s2)NC(=O)[C@H](CC(C)C)NC1=O", "Hepatocyte growth factor activator serine protease (Homo sapiens, UniProt Q04756)", "=", 12]
]}

* * *

Entries and their t1/2 values follow.
# method_summary: Stability in human plasma assessed as half life
# Format: ADME, cell-free
Numbered stars: 1 amine (or outer) side, 2 acyl side, 3 side chain; on linkers, the order of the positions; unused ones are H or OH. Square brackets hold non-standard residues; d marks the D form. Peptide text beside a SMILES is read from it. X1 = N=C(N)NCCC[C@H](N[*:1])C(=O)c1nc2ccc(C(=O)[*:2])cc2s1
observable: t1/2

{"columns": ["molecule", "obs_value"],
 "data": [
  ["CC(=O)N[C@@H](CO)C(=O)N[C@@H](CCCCN)C(=O)N[C@@H](CC(C)C)C(=O)N[C@@H](CCCNC(=N)N)C(=O)c1nc2ccc(C(=O)N[C@H](C(N)=O)C(C)C)cc2s1 (Ac-SKL[X1]V-NH2)", "2.33 h"],
  ["CC(=O)N[C@H]1CC(=O)NCCCC[C@@H](C(=O)N[C@@H](CCCNC(=N)N)C(=O)c2nc3ccccc3s2)NC(=O)[C@H](CCC(N)=O)NC1=O", "> 4.818 h"],
  ["CC(=O)N[C@H]1CC(=O)NCCCC[C@@H](C(=O)N[C@@H](CCCNC(=N)N)C(=O)c2nc3ccccc3s2)NC(=O)[C@H](Cc2ccccc2)NC1=O", "> 4.818 h"],
  ["CC(=O)N[C@H]1CC(=O)NCCCC[C@@H](C(=O)N[C@@H](CCCNC(=N)N)C(=O)c2nc3ccccc3s2)NC(=O)[C@H]([C@@H](C)O)NC1=O", "4.142 h"],
  ["CC(=O)N[C@H]1CCCCNC(=O)CC[C@@H](C(=O)N[C@@H](CCCNC(=N)N)C(=O)c2nc3ccccc3s2)NC(=O)[C@H](CC(C)C)NC1=O", "> 4.82 h"],
  ["CC(=O)N[C@H]1CC(=O)N(C)CCCC[C@@H](C(=O)N[C@@H](CCCNC(=N)N)C(=O)c2nc3ccccc3s2)NC(=O)[C@H](CC(C)C)NC1=O", "> 4.82 h"],
  ["CSCC[C@@H]1NC(=O)[C@@H](NC(C)=O)CC(=O)NCCCC[C@@H](C(=O)N[C@@H](CCCNC(=N)N)C(=O)c2nc3ccccc3s2)NC1=O", "> 4.818 h"],
  ["CC(=O)N[C@H]1CC(=O)NCCCC[C@@H](C(=O)N[C@@H](CCCNC(=N)N)C(=O)c2nc3ccccc3s2)NC(=O)[C@H](Cc2ccc(O)cc2)NC1=O", "> 4.818 h"],
  ["CC(=O)N[C@H]1CC(=O)NCCCC[C@@H](C(=O)N[C@@H](CCCNC(=N)N)C(=O)c2nc3ccccc3s2)NC(=O)[C@H](CC(N)=O)NC1=O", "> 4.818 h"],
  ["CC(=O)N[C@H]1CC(=O)NCCCC[C@@H](C(=O)N[C@@H](CCCNC(=N)N)C(=O)c2nc3ccccc3s2)NC(=O)[C@H](CC(C)C)NC1=O", "> 4.82 h"],
  ["CC(=O)N[C@H]1CC(=O)NCCCC[C@@H](C(=O)N[C@@H](CCCNC(=N)N)C(=O)c2nc3ccccc3s2)NC(=O)[C@H](C(C)C)NC1=O", "> 4.818 h"],
  ["CC(=O)N[C@H]1CC(=O)NCCCC[C@@H](C(=O)N[C@@H](CCCNC(=N)N)C(=O)c2nccs2)NC(=O)[C@H](CC(C)C)NC1=O", "> 4.818 h"]
]}

* * *

# target: Prothrombin (Homo sapiens, UniProt P00734)
# method_summary: Inhibition of recombinant thrombin (unknown origin) using D-Phe-Pip-Arg-pNA as substrate preincubated for 30 mins followed by substrate addition by chromogenic assay
pIC50: −log10 of the molar value. Numbered stars: 1 amine (or outer) side, 2 acyl side, 3 side chain; on linkers, the order of the positions; unused ones are H or OH. Square brackets hold non-standard residues; d marks the D form. Peptide text beside a SMILES is read from it. X1 = N=C(N)NCCC[C@H](N[*:1])C(=O)c1nc2ccc(C(=O)[*:2])cc2s1
Listed compounds paired with reported pIC50
observable: pIC50

{"columns": ["compound", "target", "obs_value"],
 "data": [
  ["CC(=O)N[C@H]1CCCCNC(=O)C[C@@H](C(=O)N[C@@H](CCCNC(=N)N)C(=O)c2nc3ccccc3s2)NC(=O)[C@H](CC(C)C)NC1=O", "Prothrombin (Homo sapiens, UniProt P00734)", "< 4.70"],
  ["CC(=O)N[C@@H](CO)C(=O)N[C@@H](CCCCN)C(=O)N[C@@H](CC(C)C)C(=O)N[C@@H](CCCNC(=N)N)C(=O)c1nc2ccc(C(=O)N[C@H](C(N)=O)C(C)C)cc2s1 (Ac-SKL[X1]V-NH2)", "Prothrombin (Homo sapiens, UniProt P00734)", 5.05],
  ["CC(=O)N[C@H]1CCCCNC(=O)CC[C@@H](C(=O)N[C@@H](CCCNC(=N)N)C(=O)c2nc3ccccc3s2)NC(=O)[C@H](CC(C)C)NC1=O", "Prothrombin (Homo sapiens, UniProt P00734)", "< 4.70"],
  ["CC(=O)N[C@H]1CCCCNC(=O)CC[C@@H](C(=O)N[C@@H](CCCNC(=N)N)C(=O)c2nc3ccccc3s2)NC(=O)[C@H](CCCNC(=N)N)NC1=O", "Prothrombin (Homo sapiens, UniProt P00734)", "< 4.70"]
]}

* * *

# method_summary: Half life in mouse plasma at 20 mg/kg, ip
# Format: ADME, organism-based
# condition_parameters: plasma

{"columns": ["compound_smiles", "value_unit", "half-life"],
 "data": [
  ["CC(=O)N[C@H]1CC(=O)N(C)CCCC[C@@H](C(=O)N[C@@H](CCCNC(=N)N)C(=O)c2nc3ccccc3s2)NC(=O)[C@H](CC(C)C)NC1=O", "min", 33.2]
]}

* * *

# method_summary: Half life in mouse plasma at 20 mg/kg, ip
# Format: ADME, organism-based
# condition_parameters: in vivo, 20 mg/kg
Numbered stars: 1 amine (or outer) side, 2 acyl side, 3 side chain; on linkers, the order of the positions; unused ones are H or OH. Square brackets hold non-standard residues; d marks the D form. Peptide text beside a SMILES is read from it. X1 = N=C(N)NCCC[C@H](N[*:1])C(=O)c1nc2ccc(C(=O)[*:2])cc2s1
Reported t1/2 is given for each of the following molecules.

{"columns": ["molecule", "t1/2"],
 "data": [
  ["CC(=O)N[C@H]1CCCCNC(=O)CC[C@@H](C(=O)N[C@@H](CCCNC(=N)N)C(=O)c2nc3ccccc3s2)NC(=O)[C@H](CC(C)C)NC1=O", "0.71 h"],
  ["CC(=O)N[C@H]1CC(=O)NCCCC[C@@H](C(=O)N[C@@H](CCCNC(=N)N)C(=O)c2nc3ccccc3s2)NC(=O)[C@H](CC(C)C)NC1=O", "8.7 h"],
  ["CC(=O)N[C@@H](CO)C(=O)N[C@@H](CCCCN)C(=O)N[C@@H](CC(C)C)C(=O)N[C@@H](CCCNC(=N)N)C(=O)c1nc2ccc(C(=O)N[C@H](C(N)=O)C(C)C)cc2s1 (Ac-SKL[X1]V-NH2)", "2 h"],
  ["CC(=O)N[C@H]1CC(=O)NCCCC[C@@H](C(=O)N[C@@H](CCCNC(=N)N)C(=O)c2nc3ccccc3s2)NC(=O)[C@H](Cc2ccccc2)NC1=O", "1.61 h"]
]}
